Exercise: state measured Ki for each of the compounds provided.
- Assay System: Sodium-dependent noradrenaline transporter (Homo sapiens)
- Sequence (P23975 whole entry): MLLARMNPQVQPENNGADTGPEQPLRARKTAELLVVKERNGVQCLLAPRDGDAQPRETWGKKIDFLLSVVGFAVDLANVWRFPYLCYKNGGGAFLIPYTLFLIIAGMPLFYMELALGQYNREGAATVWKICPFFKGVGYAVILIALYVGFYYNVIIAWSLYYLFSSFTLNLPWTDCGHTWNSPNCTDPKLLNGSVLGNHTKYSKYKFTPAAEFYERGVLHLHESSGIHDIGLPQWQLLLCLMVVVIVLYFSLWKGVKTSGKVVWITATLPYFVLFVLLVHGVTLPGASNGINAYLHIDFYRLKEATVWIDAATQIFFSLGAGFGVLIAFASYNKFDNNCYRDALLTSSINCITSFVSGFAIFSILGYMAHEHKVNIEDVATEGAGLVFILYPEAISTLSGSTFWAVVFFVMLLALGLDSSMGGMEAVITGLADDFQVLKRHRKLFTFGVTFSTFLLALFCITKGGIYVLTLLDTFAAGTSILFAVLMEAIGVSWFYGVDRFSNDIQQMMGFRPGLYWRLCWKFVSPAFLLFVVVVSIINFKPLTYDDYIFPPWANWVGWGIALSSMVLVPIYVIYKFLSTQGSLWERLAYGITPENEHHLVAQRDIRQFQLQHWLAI
- Measurement Notes: Inhibition of monoamine reuptake at norepinephrine transporter
Numbers only, in nM.

Here's what some known entries look like.
>>> df
                                   compound                              assay_system  quantity_unit  reading
0  CNCCCC1Cc2ccccc2N(c2ccc(C)cc2)C1=O (racemic)  Sodium-dependent noradrenaline transporter (Homo sapiens)             nM        3
1  CNCCCC1(C)Cc2ccccc2N(c2ccc(F)c(F)c2)C1=O (racemic)  Sodium-dependent noradrenaline transporter (Homo sapiens)             nM       77
2  CNCCCC1Cc2cc(Cl)ccc2N(c2ccc(C)cc2)C1=O (racemic)  Sodium-dependent noradrenaline transporter (Homo sapiens)             nM        6

// each compound listed below needs its Ki
1. CNCCCC1(C)Cc2ccccc2N(c2cc(F)cc(F)c2)C1=O (racemic)
2. CNCCCC1Cc2ccccc2N(c2ccc(Cl)cc2)C1=O (configuration not stated)
3. CNCCCC1(C)Cc2ccccc2N(c2ccccc2)C1=O (racemic)
4. CCC1(CCCNC)Cc2cc(Cl)ccc2N(c2ccc(C)cc2)C1=O (racemic)
5. CNCCCC1Cc2ccccc2N(c2ccccc2)C1=O (stereo in doubt)
6. CCC1(CCCNC)Cc2ccccc2N(c2ccc(C)cc2)C1=O (racemic)
7. CCC1(CCCNC)Cc2ccccc2N(c2ccccc2)C1=O (racemic)
8. CNCCCC1Cc2ccccc2N(c2cccc(F)c2)C1=O (racemic)

1: 165; 2: 21; 3: 44; 4: 47; 5: 190; 6: 17; 7: 10; 8: 18
